Taken from paper PMC12430278.

- experiment notes: Stability of ISO in tissue homogenates
- Type: in vitro ADME
- test context: mouse; liver homogenate, 1600 ng/mL; read-out: Stability Remaining (%, Mean ± SD) Short-Term Stability (6 h on Ice)
metric: remaining at 6 h, 1600 ng/mL (%)
Express the result in % but write the number alone.

Measured remaining at 6 h, 1600 ng/mL, COc1cc(/C=C/c2cc(O)cc(O)c2)ccc1O [ISO] : 97.8

* * *

- experiment notes: Stability of ISO in tissue homogenates
- Assay type: in vitro ADME
- test context: mouse; small intestine homogenate, 45.0 ng/mL; read-out: Stability Remaining (%, Mean ± SD) Short-Term Stability (6 h on Ice)
metric: remaining at 6 h, 45 ng/mL (%)
Express the result in % but write the number alone.

Measured remaining at 6 h, 45 ng/mL, COc1cc(/C=C/c2cc(O)cc(O)c2)ccc1O [ISO] : 91.8

* * *

- experiment notes: Stability of ISO in plasma samples under various storage conditions
- Type: in vitro ADME
- test context: mouse plasma, 1600 ng/mL, after three freeze and thaw cycles; read-out: Remaining (%, Mean ± SD)
metric: remaining at 1600 ng/mL
Write the quantity with the unit trailing the number.

Measured remaining at 1600 ng/mL, COc1cc(/C=C/c2cc(O)cc(O)c2)ccc1O [ISO] : 105%

* * *

- experiment notes: Stability of ISO in tissue homogenates
- Assay type: in vitro ADME
- test context: mouse; large intestine homogenate, 1600 ng/mL; read-out: Stability Remaining (%, Mean ± SD) Short-Term Stability (6 h on Ice)
- Description: In bioanalysis, analyte stability in biological matrices is crucial for ensuring accurate and reliable quantification. […] Therefore, the stability of ISO in plasma was thoroughly evaluated under various storage conditions (Table 5). […] Accordingly, only short-term stability (6 h on ice) was assessed in tissue homogenates (Table 6). […] The stability of ISO was evaluated under various storage conditions. Stock solution stability was assessed after storage at room temperature (25 °C) and –20 °C. […]
metric: remaining at 6 h, 1600 ng/mL (%)
Express the result in % but write the number alone.

Measured remaining at 6 h, 1600 ng/mL, COc1cc(/C=C/c2cc(O)cc(O)c2)ccc1O [ISO] : 90.3

* * *

- experiment notes: Stability of ISO in tissue homogenates
- Assay type: in vitro ADME
- test context: mouse; liver homogenate, 45.0 ng/mL; read-out: Stability Remaining (%, Mean ± SD) Post-Preparative Stability (More Than 24 h at 4 °C)
- Experimental: In bioanalysis, analyte stability in biological matrices is crucial for ensuring accurate and reliable quantification. […] Therefore, the stability of ISO in plasma was thoroughly evaluated under various storage conditions (Table 5). […] Accordingly, only short-term stability (6 h on ice) was assessed in tissue homogenates (Table 6). […] The stability of ISO was evaluated under various storage conditions. Stock solution stability was assessed after storage at room temperature (25 °C) and –20 °C. […]
metric: remaining at 24 h, 45 ng/mL (%)
Express the result in % but write the number alone.

Measured remaining at 24 h, 45 ng/mL, COc1cc(/C=C/c2cc(O)cc(O)c2)ccc1O : 105

* * *

- experiment notes: Stability of ISO in tissue homogenates
- Format: in vitro ADME
- test context: mouse; fat homogenate, 1600 ng/mL; read-out: Stability Remaining (%, Mean ± SD) Short-Term Stability (6 h on Ice)
metric: remaining at 6 h, 1600 ng/mL (%)
Express the result in % but write the number alone.

Measured remaining at 6 h, 1600 ng/mL, COc1cc(/C=C/c2cc(O)cc(O)c2)ccc1O : 96.8

* * *

- experiment notes: Stability of ISO in plasma samples under various storage conditions
- Format: in vitro ADME
- test context: mouse plasma, 45.0 ng/mL, short-term stability (24 h at room temperature); read-out: Remaining (%, Mean ± SD)
metric: remaining at 24 h, 45 ng/mL (%)
Express the result in % but write the number alone.

Measured remaining at 24 h, 45 ng/mL, COc1cc(/C=C/c2cc(O)cc(O)c2)ccc1O : 102

* * *

- experiment notes: Stability of ISO in tissue homogenates
- Format: in vitro ADME
- test context: mouse; kidney homogenate, 1600 ng/mL; read-out: Stability Remaining (%, Mean ± SD) Short-Term Stability (6 h on Ice)
metric: remaining at 6 h, 1600 ng/mL (%)
Express the result in % but write the number alone.

Measured remaining at 6 h, 1600 ng/mL, COc1cc(/C=C/c2cc(O)cc(O)c2)ccc1O [ISO] : 97.4

* * *

- experiment notes: Stability of ISO in tissue homogenates
- Assay type: in vitro ADME
- test context: mouse; heart homogenate, 45.0 ng/mL; read-out: Stability Remaining (%, Mean ± SD) Short-Term Stability (6 h on Ice)
metric: remaining at 6 h, 45 ng/mL (%)
Express the result in % but write the number alone.

Measured remaining at 6 h, 45 ng/mL, COc1cc(/C=C/c2cc(O)cc(O)c2)ccc1O : 93.8

* * *

- experiment notes: Stability of ISO in tissue homogenates
- Type: in vitro ADME
- test context: mouse; brain homogenate, 1600 ng/mL; read-out: Stability Remaining (%, Mean ± SD) Short-Term Stability (6 h on Ice)
metric: remaining at 6 h, 1600 ng/mL (%)
Express the result in % but write the number alone.

Measured remaining at 6 h, 1600 ng/mL, COc1cc(/C=C/c2cc(O)cc(O)c2)ccc1O [ISO] : 95.9

* * *

- experiment notes: Stability of ISO in tissue homogenates
- Assay type: in vitro ADME
- test context: mouse; spleen homogenate, 1600 ng/mL; read-out: Stability Remaining (%, Mean ± SD) Short-Term Stability (6 h on Ice)
metric: remaining at 6 h, 1600 ng/mL (%)
Express the result in % but write the number alone.

Measured remaining at 6 h, 1600 ng/mL, COc1cc(/C=C/c2cc(O)cc(O)c2)ccc1O : 94.3

* * *

- experiment notes: Stability of stock solutions
- Assay type: physicochemical
- test context: DMSO stock solution; stock solution 1.00 mg/mL, stored at room temperature for 24 h, n = 6; read-out: Remaining (%, Mean ± SD)
metric: remaining at 24 h, 1 mg/mL (%)
Express the result in % but write the number alone.

Measured remaining at 24 h, 1 mg/mL, COc1cc(/C=C/c2cc(O)cc(O)c2)ccc1O : 94.6

* * *

- experiment notes: Stability of ISO in tissue homogenates
- Format: in vitro ADME
- test context: mouse; lung homogenate, 1600 ng/mL; read-out: Stability Remaining (%, Mean ± SD) Short-Term Stability (6 h on Ice)
metric: remaining at 6 h, 1600 ng/mL
Write the quantity with the unit trailing the number.

Measured remaining at 6 h, 1600 ng/mL, COc1cc(/C=C/c2cc(O)cc(O)c2)ccc1O : 101%

* * *

- experiment notes: Stability of ISO in tissue homogenates
- Type: in vitro ADME
- test context: mouse; lung homogenate, 45.0 ng/mL; read-out: Stability Remaining (%, Mean ± SD) Short-Term Stability (6 h on Ice)
metric: remaining at 6 h, 45 ng/mL
Write the quantity with the unit trailing the number.

Measured remaining at 6 h, 45 ng/mL, COc1cc(/C=C/c2cc(O)cc(O)c2)ccc1O : 97.3%

* * *

- experiment notes: Stability of ISO in plasma samples under various storage conditions
- Type: in vitro ADME
- test context: mouse plasma, 1600 ng/mL, long term-stability (−80 °C for 52 days); read-out: Remaining (%, Mean ± SD)
metric: remaining at 1248 h, 1600 ng/mL
Write the quantity with the unit trailing the number.

Measured remaining at 1248 h, 1600 ng/mL, COc1cc(/C=C/c2cc(O)cc(O)c2)ccc1O : 106%

* * *

- experiment notes: Stability of ISO in tissue homogenates
- Format: in vitro ADME
- test context: mouse; brain homogenate, 45.0 ng/mL; read-out: Stability Remaining (%, Mean ± SD) Short-Term Stability (6 h on Ice)
metric: remaining at 6 h, 45 ng/mL (%)
Express the result in % but write the number alone.

Measured remaining at 6 h, 45 ng/mL, COc1cc(/C=C/c2cc(O)cc(O)c2)ccc1O [ISO] : 101

* * *

- experiment notes: Stability of ISO in tissue homogenates
- Assay type: in vitro ADME
- test context: mouse; large intestine homogenate, 45.0 ng/mL; read-out: Stability Remaining (%, Mean ± SD) Short-Term Stability (6 h on Ice)
metric: remaining at 6 h, 45 ng/mL (%)
Express the result in % but write the number alone.

Measured remaining at 6 h, 45 ng/mL, COc1cc(/C=C/c2cc(O)cc(O)c2)ccc1O : 92.6

* * *

- experiment notes: Stability of stock solutions
- Format: physicochemical
- test context: DMSO stock solution; stock solution 1.00 mg/mL, stored at −20 °C for 20 days, n = 6; read-out: Remaining (%, Mean ± SD)
metric: remaining at 480 h, 1 mg/mL

Measured remaining at 480 h, 1 mg/mL, COc1cc(/C=C/c2cc(O)cc(O)c2)ccc1O : 105%
